tested on: MDA-MB-231; test: Induction of apoptosis in human MDA-MB-231 cells assessed as apoptotic cells at 10 uM after 24 hrs by annexin V/propidium iodide staining based FACS flow cytometry (reference value: 1.8 +/- 0.3 %); assay type: functional
# cutoff 2% applies to Activity; >= gives class 1, < gives class 0

1. CC(C)c1cccc(C(C)C)c1O; class 1
2. CC(C)c1ccccc1O; class 1
3. CC/C=C\C/C=C\C/C=C\C/C=C\C/C=C\C/C=C\CCC(=O)Oc1c(C(C)C)cccc1C(C)C; class 1
4. CC/C=C\C/C=C\C/C=C\C/C=C\C/C=C\C/C=C\CCC(=O)Oc1ccccc1C(C)C; class 1
5. CC/C=C\C/C=C\C/C=C\C/C=C\C/C=C\C/C=C\CCC(=O)O; class 0

* * *

Readings of Activity for the listed molecules
tested on: MDA-MB-231; assay: Induction of apoptosis in human MDA-MB-231 cells assessed as apoptotic cells at 1 uM after 24 hrs by annexin V/propidium iodide staining based FACS flow cytometry (reference value: 1.8 +/- 0.3 %); format: functional
parameter: Activity (%)

1. CC(C)c1cccc(C(C)C)c1O; 2
2. CC/C=C\C/C=C\C/C=C\C/C=C\C/C=C\C/C=C\CCC(=O)O; 2.1
3. CC/C=C\C/C=C\C/C=C\C/C=C\C/C=C\C/C=C\CCC(=O)Oc1ccccc1C(C)C; 1.8
4. CC(C)c1ccccc1O; 1.5
5. CC/C=C\C/C=C\C/C=C\C/C=C\C/C=C\C/C=C\CCC(=O)Oc1c(C(C)C)cccc1C(C)C; 1.8

* * *

system: AU565; assay: Cytotoxicity against human AU565 cells at 25 uM after 48 hrs by WST1 assay; type: functional, cell-based
The source made the active and inactive calls. The rule behind the calls is not given here.
Classes used: active, inactive

1. CC/C=C\C/C=C\C/C=C\C/C=C\C/C=C\C/C=C\CCC(=O)Oc1c(C(C)C)cccc1C(C)C; active
2. CC(C)c1cccc(C(C)C)c1O; inactive
3. CC/C=C\C/C=C\C/C=C\C/C=C\C/C=C\C/C=C\CCC(=O)Oc1ccccc1C(C)C; active
4. CC(C)c1ccccc1O; inactive

* * *

system: MCF7; assay: Growth inhibition of human MCF7 cells at 25 uM after 48 hrs by WST1 assay; format: functional, cell-based
Calls of active or inactive are those of the source. No cut-off for these calls is given here.
Classes used: active, inactive

1. CC(C)c1cccc(C(C)C)c1O [PROPOFOL]; inactive
2. CC/C=C\C/C=C\C/C=C\C/C=C\C/C=C\C/C=C\CCC(=O)Oc1ccccc1C(C)C; active
3. CC(C)c1ccccc1O; inactive
4. CC/C=C\C/C=C\C/C=C\C/C=C\C/C=C\C/C=C\CCC(=O)Oc1c(C(C)C)cccc1C(C)C; active
